Reference source for all entries: patent US8853423B2

- TARGET: ER-α (Homo sapiens)
- Construct: endogenous in cells; host or cells: MCF-7
- Sequence (P03372 whole entry): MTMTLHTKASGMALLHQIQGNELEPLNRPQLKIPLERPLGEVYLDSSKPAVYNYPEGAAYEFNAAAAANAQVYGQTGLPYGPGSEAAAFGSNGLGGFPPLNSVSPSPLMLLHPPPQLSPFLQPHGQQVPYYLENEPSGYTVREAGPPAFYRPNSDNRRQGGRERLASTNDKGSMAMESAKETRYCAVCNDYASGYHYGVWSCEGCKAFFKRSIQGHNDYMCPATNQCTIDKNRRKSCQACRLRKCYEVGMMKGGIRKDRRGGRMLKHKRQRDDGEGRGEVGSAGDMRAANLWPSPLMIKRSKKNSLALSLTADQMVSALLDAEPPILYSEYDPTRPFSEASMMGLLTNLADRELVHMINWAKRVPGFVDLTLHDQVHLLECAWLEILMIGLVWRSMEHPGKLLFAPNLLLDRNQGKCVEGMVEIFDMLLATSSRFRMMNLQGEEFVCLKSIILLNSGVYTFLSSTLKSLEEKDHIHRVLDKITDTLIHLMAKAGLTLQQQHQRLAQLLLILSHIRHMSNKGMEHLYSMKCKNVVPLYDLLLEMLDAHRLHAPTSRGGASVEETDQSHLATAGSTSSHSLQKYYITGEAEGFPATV
- METHOD SUMMARY: ER-α in Cell Western Assay (ER1D5)
- Type: cell-based
- MEASUREMENT PARAMETERS: MCF7; MCF-7 cells, ER1D5 antibody, 4 or 24 hr post compound addition; read-out: ER In-Cell Western Assay (ER1D5); Max Response
ASSAY READOUT: Emax

>>> measurement("C[C@@H]1CCN([C@@H](C)COc2ccc(C3c4ccc(O)cc4CC3c3ccc(O)cc3)cc2)C1 (stereo partly shown) [Example 2]")
"≥ 65%"
>>> measurement("Oc1ccc(C2Cc3cc(O)ccc3C2c2ccc(OCCN3CCCC3)cc2)cc1 (stereo not shown) [Example 1]")
"40 to 65%"
>>> measurement("C[C@@H]1CCN([C@@H](C)COc2ccc(C3c4ccc(O)cc4CC3c3cccc(O)c3)cc2)C1 (stereo partly shown) [Example 3]")
"≥ 65%"

Please turn your attention to the following entry.
For the compound C[C@@H]1CCN([C@@H](C)COc2ccc(C3c4ccc(O)cc4CC3c3ccccc3)cc2)C1 (stereo partly shown) [Example 4] , what Emax is on record?
≥ 65%
